Tested on: MCF7
ASSAY_NAME: Cytotoxicity against human MCF7 cells assessed as cell viability by SRB assay
Assay type: functional, cell-based

| COMPOUND | ENDPOINT_UNIT | IC50 |
| --- | --- | --- |
| COC(=O)c1nnnn1[C@@H]1c2cc3c(cc2[C@@H](c2cc(OC)c(OC)c(OC)c2)[C@H]2C(=O)OC[C@@H]21)OCO3 | µM | 6.97 |
| COc1cc([C@@H]2c3cc4c(cc3[C@@H](n3nnnc3C(=O)c3ccccc3)[C@H]3COC(=O)[C@H]23)OCO4)cc(OC)c1O | µM | 7.02 |
| COc1cc([C@@H]2c3cc4c(cc3[C@@H](n3nnnc3C(=O)OCc3ccccc3)[C@H]3COC(=O)[C@H]23)OCO4)cc(OC)c1O | µM | 9.44 |
| COc1cc([C@@H]2c3cc4c(cc3[C@@H](n3nnnc3S(=O)(=O)c3ccc(C)cc3)[C@H]3COC(=O)[C@H]23)OCO4)cc(OC)c1O | µM | 5.29 |
| COc1cc([C@@H]2c3cc4c(cc3[C@H](O)[C@H]3COC(=O)[C@H]23)OCO4)cc(OC)c1OC [PODOFILOX] | µM | 3.34 |
| COc1cc([C@@H]2c3cc4c(cc3[C@@H](n3nnnc3S(=O)(=O)c3ccc(C)cc3)[C@H]3COC(=O)[C@H]23)OCO4)cc(OC)c1OC | µM | 6.99 |

Where do these numbers come from? They come from ChEMBL document CHEMBL3588786.
